Hey, just so you know, these numbers are from paper PMC7332481.

Measured EC50 accompanies every entry in the list below.
Tested on: Lemna minor
Assay: L. minor growth inhibition test
Conditions: Lemna minor, 168 h, read-out: EC50 L. minor (with confidence interval 2.5–97.5%), growth rate inhibition by frond area, 7 days
All answers are understood in µg/mL, so give the number only.

Consider the worked cases shown below.
CC(C)Cc1ccc([C@H](C)C(=O)O)cc1 [IBU Isomer S, S-ibuprofen] | 26.3
COc1ccc2cc([C@H](C)C(=O)O)ccc2c1 [NAP, Naproxen] | 20.7
NC(=O)N1c2ccccc2C=Cc2ccccc21 [CRB, Carbamazepine] | 50.2
CC(C)Cc1ccc(C(C)C(=O)O)cc1 (stereo not drawn) [IBU, Ibuprofen] | 13.2

Next up:
*Q* Which EC50 is reported for this molecule? O=C(O)Cc1ccccc1Nc1c(Cl)cccc1Cl [DIC, Diclofenac]
*A* 16.5

###

Test system: Vibrio fischeri
Assay: microbe, parasite or virus in culture
Type: cell-based
Conditions: Aliivibrio fischeri; concentration 100 mg L^−1; read-out: Luminescence inhibition
Measured inhibition at 100 µg/mL accompanies every entry in the list below.
All answers are understood in %, so give the number only.

NC(=O)N1c2ccccc2C2OC2c2ccccc21 (stereo not shown) [CRB-Ep, Carbamazepine 10,11-epoxide] | 30
NC(=O)N1c2ccccc2C=Cc2ccccc21 [CRB, Carbamazepine] | 42
COCCc1ccc(OCC(O)CNC(C)C)cc1 (stereo not shown) | 3

Next up:
*Q* Vibrio fischeri / inhibition at 100 µg/mL / CC(C)NCC(O)COc1ccc(CC(=O)O)cc1 (stereo not shown) : value?
*A* 0

###

Tested on: Daphnia magna
Assay: D. magna acute immobilization test
Type: in vivo
Details: Daphnia magna; concentration 100 mg L^−1
Measured mortality at 100 µg/mL accompanies every entry in the list below.
All answers are understood in %, so give the number only.

COCCc1ccc(OCC(O)CNC(C)C)cc1 (stereo not shown) | 4
NC(=O)N1c2ccccc2C2OC2c2ccccc21 (stereo not shown) [CRB-Ep, Carbamazepine 10,11-epoxide] | 0
NC(=O)N1c2ccccc2C=Cc2ccccc21 [CRB, Carbamazepine] | 24

Next up:
*Q* Which mortality at 100 µg/mL is reported for this compound? CC(C)NCC(O)COc1ccc(CC(=O)O)cc1 (stereo not shown)
*A* 0

###

Tested on: Vibrio fischeri
Assay: microbe, parasite or virus in culture
Type: cell-based
Details: Aliivibrio fischeri, 0.5 h; luminescence inhibition, 30 min, 15 °C; read-out: EC50 V. fischeri (with confidence interval 2.5–97.5%)
Measured EC50 accompanies every entry in the list below.
All answers are understood in µg/mL, so give the number only.

Cc1cc(NS(=O)(=O)c2ccc(N)cc2)no1 | 51.8

*Q* Which EC50 is reported for this compound? COc1ccc2cc([C@H](C)C(=O)O)ccc2c1
*A* 25.2
